- MEASURED_TARGET: T1, µ1 MHD carrying a C-terminal Avitag, WT (UniProt Q9BXS5 158-423)
- T1 sequence (looked up): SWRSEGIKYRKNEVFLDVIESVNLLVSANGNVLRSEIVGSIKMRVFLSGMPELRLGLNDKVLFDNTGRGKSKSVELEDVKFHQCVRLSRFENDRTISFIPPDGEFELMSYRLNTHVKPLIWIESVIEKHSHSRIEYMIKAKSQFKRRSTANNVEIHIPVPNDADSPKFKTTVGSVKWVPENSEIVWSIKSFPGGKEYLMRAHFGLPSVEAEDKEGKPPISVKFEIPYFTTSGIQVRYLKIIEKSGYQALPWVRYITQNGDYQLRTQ
- ASSAY_PROTOCOL: SPR
MEASURED_PROPERTY: Kd

Query: Endpoint output: Kd of CKVTRRPKASDYQRL [TGN38 peptide carrying a canonical YXXΦ signal] . Value?
Result: ~20 µM
